Where do these numbers come from? They come from the supplement of paper PMC10126150.

As shown below, each of these sequences has a reported switch fluorescence ratio value.
- System: ATP;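 note: ATP exposure 15 min at 22 °C before imaging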
- EXPERIMENTAL_DETAILS: switch fluorescence ratio, 500 uM ATP over buffer (Cy3 cluster intensity, sum of 5 cycles each) (fold (ratio)); higher = stronger signal-on switching upon ATP binding; sequences stand for … in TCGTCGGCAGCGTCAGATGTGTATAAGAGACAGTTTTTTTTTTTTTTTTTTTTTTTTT…TC
- CONDITION_INFO: aptamer strand: ATP DNA aptamer (quencher-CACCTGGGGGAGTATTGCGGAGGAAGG + anchor), 100 nM annealed; ATP concentration: 500 uM

SEQUENCE	switch fluorescence ratio
TGGGGTGCGA	1.01
GATTGAATAA	0.997
CAAAAGTAGA	0.991
GGGATCAGTG	0.995
CTTTTTTTGG	1
GGTGGAGGAG	0.979
